- assay-remarks: gradient 5% acetonitrile 3 min, to 50% in 2 min, to 85% in 15 min, held 3 min, 100 µL/min
- measurement-setup: column: Zorbax Extend-C18 2.1 x 50 mm; eluents: water / acetonitrile, 0.1% formic acid
experimental-readout: RP-LC retention time

// known answers, use as guide
CC(C)Sc1ccc2nn(CC(=O)Nc3ccc(Br)cc3F)c(=O)n2n1	843 s
CCn1c(N2CCCC(C(=O)NCc3ccccc3F)C2)cc(=O)n(C)c1=O (stereo not drawn)	776 s

// moving on: another record for RP-LC retention time
Measured RP-LC retention time, CC(C)C(NC(=O)c1ccc(F)c(Cl)c1)C(=O)Nc1nc2ccccc2[nH]1 (stereo not drawn) : 756 s
